Provide the reported viability, T/C of each item.
Test system: A375 multi-cell spheroids with HUVEC/MSC, viability
Assay: Anticancer human tumor A375 cell line growth inhibition [GQUAD];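 further: spheroids exposed to compounds for seven days before readout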
Settings: second compound 10 µM; first compound 0.00999 µM; hits give low values
Description: DNA G-quadruplex Stabilizer Agents in Combinations in Complex Spheroids A high-throughput screen of multi-cell type tumor spheroids was designed to identify active combinations of DNA G-quadruplex stabilizer agents and targeted small molecules. […] Compounds. […] If the clinical Cmax for an agent had not been determined, the highest concentration tested was 10 microM. […]

Examples from the recorded data:
Cc1[nH]c2ccccc2c1CCNCc1ccc(/C=C/C(=O)NO)cc1 + CN(C)c1ccc(Nc2c3ccc(NC(=O)CCN4CCCC4)cc3nc3cc(NC(=O)CCN4CCCC4)ccc23)cc1 :: 112%
Cn1ncnc1[C@H]1c2n[nH]c(=O)c3cc(F)cc(c23)N[C@@H]1c1ccc(F)cc1 + Cc1cnc(CNC(=O)c2c(=O)c3ccc(N4CCCN(C)CC4)nc3n3c2sc2ccccc23)cn1 :: 33%

Now consider the entry below.
In: # return viability, T/C of CCc1c2c(nc3ccc(O)cc13)-c1cc3c(c(=O)n1C2)COC(=O)[C@]3(O)CC + Cc1[nH]c2ccc(F)cc2c1-c1nc2c3cccnc3c3ncccc3c2[nH]1 (system: A375 multi-cell spheroids with HUVEC/MSC, viability)
Out: 17.1%

---

Test system: A375 multi-cell spheroids with HUVEC/MSC, viability
Assay: Anticancer human tumor A375 cell line growth inhibition [GQUAD];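 further: spheroids exposed to compounds for seven days before readout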
Conditions: second compound 3.16 µM; first compound 0.1 µM; hits give low values
Text: DNA G-quadruplex Stabilizer Agents in Combinations in Complex Spheroids A high-throughput screen of multi-cell type tumor spheroids was designed to identify active combinations of DNA G-quadruplex stabilizer agents and targeted small molecules. […] Compounds. […] If the clinical Cmax for an agent had not been determined, the highest concentration tested was 10 microM. […]
I'd appreciate it if you could supply viability, T/C values for the items below.

CC(=O)O[C@H]1C(=O)[C@@]2(C)[C@H]([C@H](OC(=O)c3ccccc3)[C@]3(O)C[C@H](OC(=O)[C@H](O)[C@@H](NC(=O)c4ccccc4)c4ccccc4)C(C)=C1C3(C)C)[C@]1(OC(C)=O)CO[C@@H]1C[C@@H]2O + Cc1cnc(CNC(=O)c2c(=O)c3ccc(N4CCCN(C)CC4)nc3n3c2sc2ccccc23)cn1 :: 23.1%
Cc1cccc(N(C)C(=O)C2C(O)CCN2c2nc(C)cc(C(F)(F)F)c2C#N)c1 (stereo not given) + Cc1cnc(CNC(=O)c2c(=O)c3ccc(N4CCCN(C)CC4)nc3n3c2sc2ccccc23)cn1 :: 31.4%
CC(C)(O)C1CCC(Nc2ccc3ncc(-c4cccc(C(F)(F)F)c4)n3n2)CC1 (stereo not given) + Cc1cnc(CNC(=O)c2c(=O)c3ccc(N4CCCN(C)CC4)nc3n3c2sc2ccccc23)cn1 :: 35.4%
CC(C)n1c(=O)n(C)c2cnc3cc(F)c(-c4ccc(OCCCN5CCCCC5)nc4)cc3c21 + Cc1cnc(CNC(=O)c2c(=O)c3ccc(N4CCCN(C)CC4)nc3n3c2sc2ccccc23)cn1 :: 41.9%

In: Please report viability, T/C for the following molecule: CC1COCCN1c1cc(-c2ccnn2C)c2ccnc(-c3ccn[nH]3)c2n1 (stereo not given) + Cc1cnc(CNC(=O)c2c(=O)c3ccc(N4CCCN(C)CC4)nc3n3c2sc2ccccc23)cn1
Out: 30.2%

---

tested on: A375 multi-cell spheroids with HUVEC/MSC, viability; experiment: Anticancer human tumor A375 cell line growth inhibition [GQUAD]; conditions: second compound 0.0316 µM; first compound 0.316 µM; hits give low values;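 further: spheroids exposed to compounds for seven days before readout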
Give measured viability, T/C for each item. Keep answers brief.

Previously resolved entries follow.
CC1COCCN1c1cc(C2(S(C)(=N)=O)CC2)nc(-c2ccnc3[nH]ccc23)n1 (stereo not given) + CN(C)c1ccc(Nc2c3ccc(NC(=O)CCN4CCCC4)cc3nc3cc(NC(=O)CCN4CCCC4)ccc23)cc1 :: 102%
C=CCn1c(=O)c2cnc(Nc3ccc(N4CCN(C)CC4)cc3)nc2n1-c1cccc(C(C)(C)O)n1 + Cc1[nH]c2ccc(F)cc2c1-c1nc2c3cccnc3c3ncccc3c2[nH]1 :: 93.6%
CCc1c2c(nc3ccc(O)cc13)-c1cc3c(c(=O)n1C2)COC(=O)[C@]3(O)CC + CN(C)c1ccc(Nc2c3ccc(NC(=O)CCN4CCCC4)cc3nc3cc(NC(=O)CCN4CCCC4)ccc23)cc1 :: 0.85%

Below are 2 compounds. Give each one its viability, T/C.
1. CC1COCCN1c1cc(C2(O)CC3CCC(C2)O3)c2cnn(-c3ccn[nH]3)c2n1 (stereo not given) + Cc1cnc(CNC(=O)c2c(=O)c3ccc(N4CCCN(C)CC4)nc3n3c2sc2ccccc23)cn1
2. Cc1[nH]c2ccccc2c1CCNCc1ccc(/C=C/C(=O)NO)cc1 + Cc1cnc(CNC(=O)c2c(=O)c3ccc(N4CCCN(C)CC4)nc3n3c2sc2ccccc23)cn1

Out:
38.3%
10.3%

---

test system: A375 multi-cell spheroids with HUVEC/MSC, viability; experiment: Anticancer human tumor A375 cell line growth inhibition [GQUAD]; conditions: second compound 0.1 µM; first compound 0.1 µM; hits give low values;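 further: spheroids exposed to compounds for seven days before readout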
Assay readout: viability, T/C (%)
Answers are plain numbers, in %.

Solved entries:
CCCS(=O)(=O)Nc1ccc(F)c(C(=O)c2c[nH]c3ncc(-c4ccc(Cl)cc4)cc23)c1F + Cc1[nH]c2ccc(F)cc2c1-c1nc2c3cccnc3c3ncccc3c2[nH]1 :: 15.4
COc1cc(C2c3cc4c(cc3C(OC3OC5COC(C)OC5C(O)C3O)C3COC(=O)C23)OCO4)cc(OC)c1O (stereo unspecified) + CN(C)c1ccc(Nc2c3ccc(NC(=O)CCN4CCCC4)cc3nc3cc(NC(=O)CCN4CCCC4)ccc23)cc1 :: 103
O=c1[nH]cc(F)c(=O)[nH]1 + CN(C)c1ccc(Nc2c3ccc(NC(=O)CCN4CCCC4)cc3nc3cc(NC(=O)CCN4CCCC4)ccc23)cc1 :: 104
C#Cc1c(F)ccc2cc(O)cc(-c3ncc4c(N5CC6CCC(C5)N6)nc(OCC56CCCN5CC(F)C6)nc4c3F)c12 (stereo unspecified) + Cc1[nH]c2ccc(F)cc2c1-c1nc2c3cccnc3c3ncccc3c2[nH]1 :: 104
C#Cc1c(F)ccc2cc(O)cc(-c3ncc4c(N5CC6CCC(C5)N6)nc(OCC56CCCN5CC(F)C6)nc4c3F)c12 (stereo unspecified) + CN(C)c1ccc(Nc2c3ccc(NC(=O)CCN4CCCC4)cc3nc3cc(NC(=O)CCN4CCCC4)ccc23)cc1 :: 103

Give one value of viability, T/C per listed molecule.
1. CC1COCCN1c1cc(C2(O)CC3CCC(C2)O3)c2cnn(-c3ccn[nH]3)c2n1 (stereo unspecified) + Cc1cnc(CNC(=O)c2c(=O)c3ccc(N4CCCN(C)CC4)nc3n3c2sc2ccccc23)cn1
2. COc1cccc2c1C(=O)c1c(O)c3c(c(O)c1C2=O)CC(O)(C(=O)CO)CC3OC1CC(N)C(O)C(C)O1 (stereo unspecified) + Cc1cnc(CNC(=O)c2c(=O)c3ccc(N4CCCN(C)CC4)nc3n3c2sc2ccccc23)cn1
3. CC1COCCN1c1cc(C2(O)CC3CCC(C2)O3)c2cnn(-c3ccn[nH]3)c2n1 (stereo unspecified) + CN(C)c1ccc(Nc2c3ccc(NC(=O)CCN4CCCC4)cc3nc3cc(NC(=O)CCN4CCCC4)ccc23)cc1
4. COc1ccc([C@@H](O)c2cc(-c3ncnc4cc(N5CCOCC5)ccc34)c(F)cc2Cl)nn1 + CN(C)c1ccc(Nc2c3ccc(NC(=O)CCN4CCCC4)cc3nc3cc(NC(=O)CCN4CCCC4)ccc23)cc1
5. Cc1cccc(N(C)C(=O)C2C(O)CCN2c2nc(C)cc(C(F)(F)F)c2C#N)c1 (stereo unspecified) + Cc1[nH]c2ccc(F)cc2c1-c1nc2c3cccnc3c3ncccc3c2[nH]1

Out:
1. 42.5
2. 38.7
3. 70.4
4. 111
5. 94.5

In: Input C=CC(=O)N1CCN(c2nc(=O)n(-c3c(C)ccnc3C(C)C)c3nc(-c4c(O)cccc4F)c(F)cc23)C(C)C1 (stereo unspecified) + Cc1cnc(CNC(=O)c2c(=O)c3ccc(N4CCCN(C)CC4)nc3n3c2sc2ccccc23)cn1 , output reported viability, T/C.
Out: 77.3

---

Kindly state viability, T/C for each of the entries shown.
test system: A375 multi-cell spheroids with HUVEC/MSC, viability; assay: Anticancer human tumor A375 cell line growth inhibition [GQUAD]; settings: second compound 0.0316 µM; first compound 0.316 µM; hits give low values;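 further: spheroids exposed to compounds for seven days before readout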
Numbers only, in %.

// worked examples, viability, T/C included
Nc1ccn(C2OC(CO)C(O)C2(F)F)c(=O)n1 (stereo not given) + Cc1cnc(CNC(=O)c2c(=O)c3ccc(N4CCCN(C)CC4)nc3n3c2sc2ccccc23)cn1 :: 10.4
Cn1ncnc1[C@H]1c2n[nH]c(=O)c3cc(F)cc(c23)N[C@@H]1c1ccc(F)cc1 + Cc1[nH]c2ccc(F)cc2c1-c1nc2c3cccnc3c3ncccc3c2[nH]1 :: 97.4
CC1COCCN1c1cc(-c2ccnn2C)c2ccnc(-c3ccn[nH]3)c2n1 (stereo not given) + CN(C)c1ccc(Nc2c3ccc(NC(=O)CCN4CCCC4)cc3nc3cc(NC(=O)CCN4CCCC4)ccc23)cc1 :: 50.8

Batch of 2 compounds: report viability, T/C for each.
1. CCCS(=O)(=O)Nc1ccc(F)c(C(=O)c2c[nH]c3ncc(-c4ccc(Cl)cc4)cc23)c1F + Cc1cnc(CNC(=O)c2c(=O)c3ccc(N4CCCN(C)CC4)nc3n3c2sc2ccccc23)cn1
2. CC1COCCN1c1cc(C2(O)CC3CCC(C2)O3)c2cnn(-c3ccn[nH]3)c2n1 (stereo not given) + CN(C)c1ccc(Nc2c3ccc(NC(=O)CCN4CCCC4)cc3nc3cc(NC(=O)CCN4CCCC4)ccc23)cc1

Out:
1: 9.28; 2: 36.1
